Listing: protein stability index of selected sequences
# measurement.notes: protein stability index of a GFP-peptide fusion (yeast GPS) (PSI 1-4); higher = more stable; sorted into four equal gates, so the index is relative within each strain
# measurement.context: san1∆

Ask | Request the reported protein stability index associated with LKQEGAANKTVVVVGTV [RPL18A]
Reply | 2.51

Ask | Try this sequence too: SSIENNINNNINSTKNG [MED2]
Reply | 2.88

Ask | Try this sequence too: PIPVQGEIEIKPNEEEE [RPN13]
Reply | 2.58

Ask | Try this sequence too: HNHDTGCDENDSTVNKS [YDL088C/ASM4]
Reply | 3.3

Ask | Try this sequence too: ISFAAFILADAGLEITS [RPP1B]
Reply | 2.03

Ask | Try this sequence too: RKKARTFDSSWNWAKQS [FAS2]
Reply | 2.32

Ask | Try this sequence too: KGVATTREKVLEDKLRA [RRP46]
Reply | 2.71

====

# measurement.notes: protein stability index of a GFP-peptide fusion (yeast GPS) (PSI 1-4); higher = more stable; sorted into four equal gates, so the index is relative within each strain
# measurement.context: doa10∆
observation.type: protein stability index
# respond with the number and nothing more

Below are worked cases with known answers.
NLTAGIIVAGYDDKNKG [PRE3]: 2
TEHVRQNAKLLANLIRD [RRP6]: 1.54
KDSYINANTIETAKMIE [FAS2]: 3.14
IVFVHSRKETSRTATWL [BRR2]: 2.53
HNHDTGCDENDSTVNKS [YDL088C/ASM4]: 3.2

Ask | Request the reported protein stability index associated with ELHKKLVEAAKLLKIPK [YDL116W/NUP84]
Reply | 2.57

Ask | Try this sequence too: FLLVPSKQVQVSQQPLS [ECM29]
Reply | 1.81

====

Listing: protein stability index of selected sequences
# measurement.notes: protein stability index of a GFP-peptide fusion (yeast GPS) (PSI 1-4); higher = more stable; sorted into four equal gates, so the index is relative within each strain
# measurement.context: ubr1∆
# respond with the number and nothing more

QKLLKQLDSDANKLSKS [ISW2]: 2.98

Query sequence follows.
Ask | Request the reported protein stability index associated with EVNSKKKNKRALPNIEN [BRR2]
Reply | 3.09

====

# measurement.notes: protein stability index of a GFP-peptide fusion (yeast GPS) (PSI 1-4); higher = more stable; sorted into four equal gates, so the index is relative within each strain
# measurement.context: san1∆
observation.type: protein stability index
# respond with the number and nothing more

SGQFYFRNPTPLLSNYA [RGR1]: 1.8

Ask | Request the reported protein stability index associated with ESKLKIDPDTKAPNAVV [RPB11]
Reply | 2.62

====

# measurement.notes: protein stability index of a GFP-peptide fusion (yeast GPS) (PSI 1-4); higher = more stable; sorted into four equal gates, so the index is relative within each strain
# measurement.context: pdr5∆
observation.type: protein stability index
# respond with the number and nothing more

Below are worked cases with known answers.
SSKPAFNLISNAGTEKE [YLR335W/NUP2]: 2.95
FTIDAKPPISDSVFSFG [YLR335W/NUP2]: 2.75

Ask | Request the reported protein stability index associated with PRDVIKGKDFEITAKEV [FAS1]
Reply | 3.41

Ask | Try this sequence too: LLTLTNAANVPVENIWA [RPP1A]
Reply | 2.56

Ask | Try this sequence too: IVNGQTFSYVDSSLQPE [YMR129W/POM152]
Reply | 2.67

Ask | Try this sequence too: IHLLHDDRGPVLESIVA [BRR2]
Reply | 1.78

Ask | Try this sequence too: EQTVSAVTEATSTNGDS [RGR1]
Reply | 3.29

Data credit: the supplement of paper PMC9732359
